Could you please report measured EC50 for the items listed next?
target: human TLR7 (Homo sapiens); construct: expresses full-length human TLR7 and secretory alkaline phosphatase (SEAP) reporter gene; host or cells: HEK293 (TLR7/NF-κB/SEAPorter); experiment: Human TLR7 reporter gene assay (TLR7/NF-κB/SEAPorter HEK293 cell line), Tests 1 and 21; type: cell-based; conditions: Test 1; TLR7/NF-κB/SEAPorter HEK293 cell line; half of maximal SEAP induction; 24-hour incubation, 0.1% DMSO; read-out: EC50
Give bare numbers, in nM.

molecule	result
CCCCCNc1nc(N)nc(C)c1Cc1ccc(CNC)cc1OC [Reference example 12, reference compound]	50
CCC[C@@H](CCO)Nc1nc(N)nc(C)c1Cc1ccc(CNC)cc1OC [compound 11, reference compound]	8
CCC[C@@H](CCO)Nc1nc(N)nc(C)c1Cc1ccc(CN(C)CCOCCOCCOCCOCCO)cc1OC	94

What does the data say about its EC50? Entry: CCCCCNc1nc(N)nc(C)c1Cc1ccc(CN(C)CCOCCOCCOCCOCCO)cc1OC 68

###

Exercise: for every item that follows, state its recorded pEC50.
target: mouse TLR7 (Mus musculus); construct: expresses full-length mouse TLR7 and secretory SEAP reporter gene; assay: Mouse TLR7 reporter gene assay (HEK-Blue mTLR7 cell line), Test 2; details: half of maximal SEAP induction, 20-24-hour incubation, 0.1% DMSO
Sequence (P58681 27-1050): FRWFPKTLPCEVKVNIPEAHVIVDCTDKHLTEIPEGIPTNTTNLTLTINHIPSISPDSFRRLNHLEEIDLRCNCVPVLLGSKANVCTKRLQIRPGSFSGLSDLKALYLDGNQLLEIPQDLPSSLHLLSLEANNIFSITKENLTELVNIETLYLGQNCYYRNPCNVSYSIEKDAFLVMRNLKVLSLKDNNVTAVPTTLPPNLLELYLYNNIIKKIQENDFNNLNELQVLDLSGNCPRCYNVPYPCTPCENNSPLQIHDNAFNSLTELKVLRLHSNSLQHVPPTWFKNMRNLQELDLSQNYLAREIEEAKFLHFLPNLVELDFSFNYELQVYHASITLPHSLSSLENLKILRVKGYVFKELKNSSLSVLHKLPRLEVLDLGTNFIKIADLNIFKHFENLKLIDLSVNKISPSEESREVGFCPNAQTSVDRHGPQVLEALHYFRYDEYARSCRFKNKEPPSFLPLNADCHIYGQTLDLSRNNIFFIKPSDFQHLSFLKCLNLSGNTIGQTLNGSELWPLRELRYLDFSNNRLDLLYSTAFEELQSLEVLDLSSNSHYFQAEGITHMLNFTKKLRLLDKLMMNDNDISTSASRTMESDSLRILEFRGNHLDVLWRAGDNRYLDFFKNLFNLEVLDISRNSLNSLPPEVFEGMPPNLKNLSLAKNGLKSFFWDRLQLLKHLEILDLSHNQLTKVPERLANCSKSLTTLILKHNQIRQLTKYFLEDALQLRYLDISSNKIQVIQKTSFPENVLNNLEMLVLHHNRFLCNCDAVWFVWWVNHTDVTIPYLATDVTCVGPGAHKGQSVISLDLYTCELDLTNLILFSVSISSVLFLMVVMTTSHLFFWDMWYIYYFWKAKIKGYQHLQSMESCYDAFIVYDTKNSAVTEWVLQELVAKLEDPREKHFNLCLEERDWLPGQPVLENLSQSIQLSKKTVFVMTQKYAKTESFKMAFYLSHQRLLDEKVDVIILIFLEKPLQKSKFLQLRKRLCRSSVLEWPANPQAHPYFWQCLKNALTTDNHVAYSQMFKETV
Numbers only, as −log10 of the molar value.

Look over these answered cases.
molecule	result
CCC[C@@H](CCO)Nc1nc(N)nc(C)c1Cc1ccc(CN(C)CCOCCOCCOCCOCCO)cc1OC	7.68
CCCCCNc1nc(N)nc(C)c1Cc1ccc(CNC)cc1OC [Reference example 12, reference compound]	7.82

// input: 2 molecules below; output: pEC50 for each
1. CCC[C@@H](CCO)Nc1nc(N)nc(C)c1Cc1ccc(CNC)cc1OC [compound 11, reference compound]
2. CCCCCNc1nc(N)nc(C)c1Cc1ccc(CN(C)CCOCCOCCOCCOCCO)cc1OC

8.70
7.55

###

biological target: human TLR7 (Homo sapiens, UniProt Q9NYK1); construct: expresses full-length human TLR7 and secretory alkaline phosphatase (SEAP) reporter gene; host or cells: HEK293 (TLR7/NF-κB/SEAPorter); test: Human TLR7 reporter gene assay (TLR7/NF-κB/SEAPorter HEK293 cell line), Tests 1 and 21; format: cell-based; conditions: Test 21; according to the method of Test 1; read-out: human EC50
Sequence (Q9NYK1 27-1049): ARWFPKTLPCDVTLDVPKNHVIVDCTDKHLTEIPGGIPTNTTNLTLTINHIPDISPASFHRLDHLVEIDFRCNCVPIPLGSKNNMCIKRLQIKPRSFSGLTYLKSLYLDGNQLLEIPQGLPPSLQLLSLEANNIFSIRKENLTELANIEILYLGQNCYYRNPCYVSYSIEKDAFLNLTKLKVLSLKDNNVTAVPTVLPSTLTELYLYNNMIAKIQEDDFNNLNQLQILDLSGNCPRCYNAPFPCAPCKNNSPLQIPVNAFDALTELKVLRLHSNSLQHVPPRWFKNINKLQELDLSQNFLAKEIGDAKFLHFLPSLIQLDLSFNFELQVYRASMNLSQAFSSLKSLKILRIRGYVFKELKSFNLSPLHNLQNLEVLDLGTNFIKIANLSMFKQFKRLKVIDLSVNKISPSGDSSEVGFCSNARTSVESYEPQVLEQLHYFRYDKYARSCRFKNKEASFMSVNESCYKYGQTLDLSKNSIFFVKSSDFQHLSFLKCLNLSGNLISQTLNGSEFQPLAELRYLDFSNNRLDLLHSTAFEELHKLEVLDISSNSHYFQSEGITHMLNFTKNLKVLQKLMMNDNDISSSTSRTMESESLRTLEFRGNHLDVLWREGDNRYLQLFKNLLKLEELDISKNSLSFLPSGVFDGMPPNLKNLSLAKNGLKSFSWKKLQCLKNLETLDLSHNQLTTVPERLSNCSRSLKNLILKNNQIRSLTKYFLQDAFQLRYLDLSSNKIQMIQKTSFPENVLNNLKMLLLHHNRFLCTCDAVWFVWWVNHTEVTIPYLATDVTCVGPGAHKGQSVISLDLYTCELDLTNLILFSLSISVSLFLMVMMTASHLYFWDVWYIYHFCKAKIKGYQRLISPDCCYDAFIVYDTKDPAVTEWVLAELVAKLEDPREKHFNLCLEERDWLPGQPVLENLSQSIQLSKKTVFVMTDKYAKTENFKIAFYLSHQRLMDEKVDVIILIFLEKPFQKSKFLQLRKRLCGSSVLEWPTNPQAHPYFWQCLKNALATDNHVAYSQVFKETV
pEC50: −log10 of the molar value.
Please mark TRUE if the recorded pEC50 is equal to or greater than 6, and FALSE if it falls below.

// known answers, use as guide
compound	assigned-category
CCCCCNc1nc(N)nc(C)c1Cc1ccc(CN(C)CCOCCOCCOCCOCCOCCOCCOCCOCCOCCOCCOCCOCCOCCOCCOCCOCCOCCOCCOCCOCCOCCOCCOCCO)cc1OC [Example 9]	FALSE
CCCCCNc1nc(N)nc(C)c1Cc1ccc(CN(C)CCOCCOCCOCCOCCOCCOCCOCCOCCOCCO)cc1OC [Example 8]	TRUE
CCCCCNc1nc(N)nc(C)c1Cc1cc(CN(C)CCOCCOCCOCCOCCO)ccc1OC [Example 3]	TRUE

Reported pEC50 reaches at least 6 for CCCCCNc1nc(N)nc(C)c1Cc1ccc(CN(C)CCOCCOCCOCCOCCOCCOCCOCCOCCOCCOCCOCCOCCOCCOCCOCCOCCOCCOCCOCCOCCOCCOCCOCCOCCOCCOCCOCCOCCOCCOCCOCCOCCOCCOCCOCCO)cc1OC [Example 10] ? FALSE

Measured values drawn from patent US12427192B2 for this set.
